tested on: Swiss mice, Sarcoma 180 sc, mean tumor weight T/C; test: NCI In Vivo Anticancer Drug Screen. Data for tumor model Sarcoma 180 (subcutaneous) in Swiss mice; conditions: endpoint: mean tumor weight; dose: 1.0 mg/kg/injection; schedule: Q#A X014 (ip); vehicle: methylcellulose (MC); higher = larger tumour
T/C values, listed per item

| compound | T/C |
| --- | --- |
| O=P(N1CCCCCC1)(N1CC1)N1CC1 | 91 % of control |
| CCN(CC)P(=O)(N1CC1)N1CC1 | 64 % of control |
| NC(Cc1ccc(N(CCCl)CCCl)cc1)C(=O)O (centres undefined) | 80 % of control |
| CC(C)([NH-])CO.CC(C)([NH-])CO.[Cl][Cd][Cl] | 50 % of control |

Where do the numbers come from? From PubChem BioAssay AID342.
